Reference source for all entries: ChEMBL document CHEMBL2346552

- Tested on: Hs-578T
- test: Cytotoxicity against triple-negative human Hs578T cells assessed as growth inhibition after 24 hrs by MTT assay
- Format: functional, cell-based
Where a name gives a salt, the structure may show the parent alone.
assay-metric: log10 of IC50 (log10 of the value in mM)

compound	reported
CN(C)C(=N)NC(=N)N.Cl [METFORMIN HYDROCHLORIDE]	1.43
CN(C)C(=N)NC(=N)N.NCCCC(=O)O	0.96
CN(C)C(=N)NC(=N)N.NCC1(CC(=O)O)CCCCC1 [METFORMIN GABAPENTIN SALT]	0.60
CC(C)C[C@H](CN)CC(=O)O.CN(C)C(=N)NC(=N)N [METFORMIN PREGABALIN SALT]	0.86
N=C(N)NC(=N)NCCc1ccccc1 [PHENFORMIN ACETIC ACID SALT]	-0.05
CCCc1ccccc1Nc1nc(N)nc(N(C)C)n1.Cl	-0.55
